TESTED SYSTEM: UniProtKB Q8TDV5
EXPERIMENTAL DETAILS: Intrinsic activity at human GPR119 relative to control
In this section, each of the molecules is paired with its reported Intrinsic activity.
Give the value as a plain number.

CCCc1cnc(N2CCC(Oc3ccn(-c4ccc(NC(=O)C(C)(C)C)cc4)c(=O)c3)CC2)nc1 | 0.8
CCCc1cnc(N2CCC(Oc3ccn(-c4ccc(-n5ccnc5)cc4)c(=O)c3)CC2)nc1 | 0.8
CC(C)OC(=O)N1CCCC(Oc2ccn(-c3ccc(S(C)(=O)=O)cc3)c(=O)c2)CC1 (stereo not given) | 0.7

Request: Requested read-out: Intrinsic activity. Entry: CC(C)(C)OC(=O)N1CCC(Oc2ccn(-c3ccc(S(C)(=O)=O)cc3)c(=O)c2)CC1
Result: 0.8

----------
EXPERIMENTAL DETAILS: Cmax in C57BL/6 mouse at 30 mg/kg, po after 2 hrs
Type: ADME, organism-based
Design: dose 30 mg/kg, route oral
CONDITION: in vivo
READOUT NAME: Cmax (µM)
Write the answer as a number in µM, unit excluded.

Request: Requested read-out: Cmax. Entry: CCCc1cnc(N2CCC(Oc3ccn(-c4ccc(S(C)(=O)=O)cc4F)c(=O)c3)CC2)nc1
Result: 38.6

----------
EXPERIMENTAL DETAILS: Oral bioavailability in Sprague-Dawley rat at 5 mg/kg administered as HMPC SDD formulation
Format: ADME, organism-based
CONDITION: in vivo
READOUT NAME: bioavailability (%)
Write the answer as a number in %, unit excluded.

Request: Requested read-out: bioavailability. Entry: CS(=O)(=O)c1ccc(-n2cc(Cl)c(OC3CCN(c4ncc(Cl)cn4)CC3)cc2=O)c(F)c1
Result: 87

----------
TESTED SYSTEM: Glucose-dependent insulinotropic receptor (Homo sapiens, UniProt Q8TDV5)
Sequence (Q8TDV5 whole entry): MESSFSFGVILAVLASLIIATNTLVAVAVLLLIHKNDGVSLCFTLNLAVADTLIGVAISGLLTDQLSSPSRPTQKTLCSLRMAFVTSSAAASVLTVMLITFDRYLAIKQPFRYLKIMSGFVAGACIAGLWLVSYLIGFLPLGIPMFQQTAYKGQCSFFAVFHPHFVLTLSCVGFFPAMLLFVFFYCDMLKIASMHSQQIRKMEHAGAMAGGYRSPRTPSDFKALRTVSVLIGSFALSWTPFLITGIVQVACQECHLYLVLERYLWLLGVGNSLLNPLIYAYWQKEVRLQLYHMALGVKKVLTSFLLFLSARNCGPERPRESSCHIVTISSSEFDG
EXPERIMENTAL DETAILS: Agonist activity at human GPR119
In this section, each of the molecules is paired with its reported log10 of EC50.
Quick note: numbers are log10 of EC50, with nM as the unit.

CCCc1cnc(N2CCC(Oc3ccn(-c4ccc(NC(=O)C(C)(C)C)cc4)c(=O)c3)CC2)nc1 | 1.57
CCCc1cnc(N2CCC(Oc3ccn(-c4ccc(S(C)(=O)=O)c(F)c4)c(=O)c3)CC2)nc1 | 0.95
CS(=O)(=O)c1ccc(-n2ccc(OC3CCN(c4ncc(C5CC5)cn4)CC3)cc2=O)cc1 | 1.36
CS(=O)(=O)c1ccc(-n2cc(Cl)c(OC3CCN(c4ncc(C(F)(F)F)cn4)CC3)cc2=O)cc1F | 1.20

Request: Requested read-out: log10 of EC50. Entry: CCCc1cnc(N2CCC(Oc3ccn(-c4ccc([S+](C)[O-])cc4)c(=O)c3)CC2)nc1 (racemic)
Result: 1.61

Request: Follow-up entry: CS(=O)(=O)c1ccc(-n2cc(Cl)c(OC3CCN(c4ncc(Cl)cn4)CC3)cc2=O)cc1F
Result: 1.11

Request: Follow-up entry: CCCc1cnc(N2CCC(Oc3ccn(-c4ccc(S(C)(=O)=O)cc4F)c(=O)c3)CC2)nc1
Result: 1.26

Request: Follow-up entry: CC(C)OC(=O)N1[C@@H]2CC[C@@H]1CC(Oc1ccn(-c3ccc(S(C)(=O)=O)cc3)c(=O)c1)C2 (relative stereo; 13)
Result: 2.94

Request: Follow-up entry: CCCc1cnc(N2CCC(Oc3ccn(-c4ccc(S(C)(=O)=O)cc4)c(=O)c3)CC2)nc1
Result: 1.20

Request: Follow-up entry: CCCc1cnc(N2CCC(Oc3cc(=O)n(-c4ccc(S(C)(=O)=O)cc4)cc3C#N)CC2)nc1
Result: 1.08

Request: Follow-up entry: CCc1ccc(N2CCC(Oc3ccn(-c4ccc(S(C)(=O)=O)cc4)c(=O)c3)CC2)nc1
Result: 2.02

Request: Follow-up entry: CCCc1cnc(N2CCC(Oc3ccn(-c4ccc(C#N)cc4)c(=O)c3)CC2)nc1
Result: 1.04

Request: Follow-up entry: CS(=O)(=O)c1ccc(-n2cc(Cl)c(OC3CCN(c4ncc(Cl)cn4)CC3)cc2=O)c(F)c1 [BMS-903452]
Result: 1.15

----------
In this section, each of the compounds is paired with its reported half-life.
EXPERIMENTAL DETAILS: Half life in human liver microsomes
Assay type: ADME
Write the answer as a number in h, unit excluded.

Request: Requested read-out: half-life. Entry: CS(=O)(=O)c1ccc(-n2cc(Cl)c(OC3CCN(c4ncc(Cl)cn4)CC3)cc2=O)cc1
Result: 0.983

Request: Follow-up entry: CS(=O)(=O)c1ccc(-n2cc(Cl)c(OC3CCN(c4ncc(Cl)cn4)CC3)cc2=O)cc1F
Result: 0.65

Request: Follow-up entry: CS(=O)(=O)c1ccc(-n2cc(Cl)c(OC3CCN(c4ncc(Cl)cn4)CC3)cc2=O)c(F)c1 [BMS-903452]
Result: 1.4

----------
EXPERIMENTAL DETAILS: Solubility of the compound at pH 1
Assay type: physicochemical
CONDITION: buffer
READOUT NAME: solubility (µg/mL)
Write the answer as a number in µg/mL, unit excluded.

Request: Requested read-out: solubility. Entry: CCCc1cnc(N2CCC(Oc3ccn(-c4ccc(S(C)(=O)=O)cc4F)c(=O)c3)CC2)nc1
Result: 630

----------
EXPERIMENTAL DETAILS: AUC in C57BL/6 mouse at 30 mg/kg, po
Format: ADME, organism-based
Design: dose 30 mg/kg, route oral
CONDITION: plasma
READOUT NAME: AUC

Request: Requested read-out: AUC. Entry: CCCc1cnc(N2CCC(Oc3ccn(-c4ccc(S(C)(=O)=O)cc4F)c(=O)c3)CC2)nc1
Result: 245 µM·h

----------
TESTED SYSTEM: Glucose-dependent insulinotropic receptor (Homo sapiens) (UniProt Q8TDV5)
EXPERIMENTAL DETAILS: Intrinsic activity at human GPR119 relative to control
READOUT NAME: Intrinsic activity
Give the value as a plain number.

Please review the entries below; each comes with its answer.
CCCc1cnc(N2CCC(Oc3ccn(-c4ccc([S+](C)[O-])cc4)c(=O)c3)CC2)nc1 (racemic) | 0.9
CC(C)OC(=O)N1CCC(Oc2ccn(-c3ccc(S(C)(=O)=O)cc3)c(=O)c2)CC1 | 0.8
CCc1cnc(N2CCC(Oc3ccn(-c4ccc(S(C)(=O)=O)cc4)c(=O)c3)CC2)nc1 | 0.8

Request: Param readout = Intrinsic activity; param system = Glucose-dependent insulinotropic receptor (Homo sapiens) (UniProt Q8TDV5); param query = CCCc1cnc(N2CCC(Oc3ccn(-c4ccc(C#N)cc4)c(=O)c3)CC2)nc1 ; response: value
Result: 0.8

Request: Follow-up entry: CS(=O)(=O)c1ccc(-n2ccc(OC3CCN(C(=O)Oc4ccccc4)CC3)cc2=O)cc1
Result: 0.9

----------
EXPERIMENTAL DETAILS: Permeability of the compound by PAMPA assay
Format: ADME
CONDITION: read-out: permeability
READOUT NAME: Papp (×10⁻⁶ cm/s)
Write the answer as a number in ×10⁻⁶ cm/s, unit excluded.

Request: Requested read-out: Papp. Entry: CCCc1cnc(N2CCC(Oc3ccn(-c4ccc(S(C)(=O)=O)cc4F)c(=O)c3)CC2)nc1
Result: 32

----------
EXPERIMENTAL DETAILS: Clearance in Sprague-Dawley rat at 1 mg/kg, iv
Format: ADME, organism-based
Parameters: dose 1 mg/kg, route intravenous
CONDITION: in vivo
READOUT NAME: clearance (mL/min/kg)
Write the answer as a number in mL/min/kg, unit excluded.

Request: Requested read-out: clearance. Entry: CS(=O)(=O)c1ccc(-n2cc(Cl)c(OC3CCN(c4ncc(Cl)cn4)CC3)cc2=O)c(F)c1
Result: 1.5

----------
EXPERIMENTAL DETAILS: Solubility of the compound at pH 6.5
Format: physicochemical
CONDITION: buffer
READOUT NAME: solubility

Please review the entries below; each comes with its answer.
CS(=O)(=O)c1ccc(-n2cc(Cl)c(OC3CCN(c4ncc(Cl)cn4)CC3)cc2=O)cc1 | < 1 µg/mL
CS(=O)(=O)c1ccc(-n2cc(Cl)c(OC3CCN(c4ncc(Cl)cn4)CC3)cc2=O)cc1F | 3 µg/mL
CS(=O)(=O)c1ccc(-n2cc(Cl)c(OC3CCN(c4ncc(Cl)cn4)CC3)cc2=O)c(F)c1 | < 1 µg/mL
CS(=O)(=O)c1ccc(-n2cc(Cl)c(OC3CCN(c4ncc(C(F)(F)F)cn4)CC3)cc2=O)cc1F | < 1 µg/mL
CS(=O)(=O)c1ccc(-n2cc(Cl)c(OC3CCN(c4ncc(C(F)(F)F)cn4)CC3)cc2=O)c(F)c1 | 1 µg/mL

Here's the next entry for you.
Request: Requested read-out: solubility. Entry: CS(=O)(=O)c1ccc(-n2cc(Cl)c(OC3CCN(c4ncc(C(F)(F)F)cn4)CC3)cc2=O)cc1
Result: < 1 µg/mL
